tested_target: Mitogen-activated protein kinase kinase kinase 7 (Homo sapiens, UniProt O43318)
Sequence (O43318 whole entry): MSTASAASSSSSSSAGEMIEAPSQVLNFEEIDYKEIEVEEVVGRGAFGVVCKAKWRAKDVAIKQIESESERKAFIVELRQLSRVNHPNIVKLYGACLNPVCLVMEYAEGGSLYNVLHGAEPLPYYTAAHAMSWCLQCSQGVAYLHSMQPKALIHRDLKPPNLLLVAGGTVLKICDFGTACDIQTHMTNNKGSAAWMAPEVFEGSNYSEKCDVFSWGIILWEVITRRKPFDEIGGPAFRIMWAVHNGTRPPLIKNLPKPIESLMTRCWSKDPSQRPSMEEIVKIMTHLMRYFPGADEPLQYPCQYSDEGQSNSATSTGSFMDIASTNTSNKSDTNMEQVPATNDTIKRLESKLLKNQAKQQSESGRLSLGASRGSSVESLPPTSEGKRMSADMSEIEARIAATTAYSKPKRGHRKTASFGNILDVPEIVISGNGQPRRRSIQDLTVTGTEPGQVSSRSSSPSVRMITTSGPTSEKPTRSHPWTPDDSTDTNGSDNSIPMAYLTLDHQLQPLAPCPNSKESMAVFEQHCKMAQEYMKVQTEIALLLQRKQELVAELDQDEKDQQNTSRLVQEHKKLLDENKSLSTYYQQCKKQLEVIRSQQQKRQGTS
experimental_details: Inhibition of TAK1 in human TOV21G cells assessed as inhibition of JNK phosphorylation
measurement_name: IC50 (nM)
# value in nM; strip the unit string

Query: IC50; subject: Nc1ncc(-c2cnn([C@H]3CC[C@H](O)CC3)c2)c2c(Cl)c(-c3cccc4nnsc34)oc12
28

----------
experimental_details: Metabolic stability in mouse liver microsomes assessed as extraction ratio
Format: ADME, Microsome
conditions_used: read-out: ERH
measurement_name: hepatic extraction ratio
Enter a number only.

Solved entries (count: 5):
> print(dat)
                           structure.string          measurement.name  measured.number
1  Nc1ncc(-c2cnn([C@H]3CC[C@H](O)CC3)c2)c2c(-c3cccnc3)c(-c3cccc4nnsc34)oc12  hepatic extraction ratio             0.48
2  Nc1ncc(-c2cnn([C@H]3CC[C@H](O)CC3)c2)c2c(C(F)F)c(-c3cccc4nnsc34)oc12  hepatic extraction ratio             0.39
3  Nc1ncc(-c2cnn([C@H]3CC[C@H](O)CC3)c2)c2cc(-c3cccc4nnsc34)oc12  hepatic extraction ratio             0.63
4  Nc1ncc(-c2cnn([C@H]3CC[C@H](O)CC3)c2)c2c(CF)c(-c3cccc4nnsc34)oc12  hepatic extraction ratio             0.43
5  Nc1ncc(-c2cnn([C@H]3CC[C@H](O)CC3)c2)c2c(-c3cncs3)c(-c3cccc4nnsc34)oc12  hepatic extraction ratio             0.53

Query: hepatic extraction ratio; subject: Nc1ncc(-c2cnn([C@H]3CC[C@H](O)CC3)c2)c2c(Cl)c(-c3cccc4nnsc34)oc12
0.39

What about this compound? N#Cc1c(-c2cccc3nnsc23)oc2c(N)ncc(-c3cnn([C@H]4CC[C@H](O)CC4)c3)c12
0.43

----------
experimental_details: AUC (0 to infinity) in mouse at 2 mg/kg, iv
Type: ADME, organism-based
Parameters: dose 2 mg/kg, route intravenous, time infinity
conditions_used: plasma
// reported AUC(0-inf) for each item listed
# value in ng·h/mL; strip the unit string

> print(dat)
                           structure.string  measured.number
1  Nc1ncc(-c2cnn([C@H]3CC[C@H](O)CC3)c2)c2cc(-c3cccc4cnsc34)oc12              299
2  Nc1ncc(-c2cnn([C@H]3CC[C@H](O)CC3)c2)c2c(C(F)F)c(-c3cccc4nnsc34)oc12             3440
3  Nc1ncc(-c2cnn([C@H]3CC[C@H](O)CC3)c2)c2cc(-c3cccc4nnsc34)oc12              477
4  CC(=O)N1CCC(n2cc(-c3cnc(N)c4oc(-c5csc6cnccc56)cc34)cn2)CC1              187

Please turn your attention to the following entry.
Query: AUC(0-inf); subject: Nc1ncc(-c2cnn([C@H]3CC[C@H](O)CC3)c2)c2c(Cl)c(-c3cccc4nnsc34)oc12
1700

----------
experimental_details: AUC (0 to infinity) in mouse at 100 mg/kg, po
Format: ADME, organism-based
Parameters: time infinity, dose 100 mg/kg, route oral
conditions_used: plasma
measurement_name: AUC(0-inf) (ng·h/mL)
# value in ng·h/mL; strip the unit string

Query: AUC(0-inf); subject: Nc1ncc(-c2cnn([C@H]3CC[C@H](O)CC3)c2)c2c(Cl)c(-c3cccc4nnsc34)oc12
26800
